# assay_system: T1, human GPC3 on CHO-K1-human GPC3 cells (CHOK1-hGPC3.2B5) (human, UniProt P51654 25-554)
# T1 construct: whole, on cells
# protocol_notes: FACS, CHOK1-hGPC3.2B5 cells;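 also: flow cytometry of humanized antibodies binding to the cells over one hour in the cold, read as cell mean fluorescence intensity, with EC50 obtained by curve fitting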
value_kind: pEC50
Quick note: pEC50 means taking -log10 of the concentration in moles per liter.

// known answers, use as guide
binder	pEC50
hAb005LH2L1b (antibody, human IgG1, V domains shown, Humanized F3.54.12; VH H2 + VL L1b; expressed as human IgG1) VH: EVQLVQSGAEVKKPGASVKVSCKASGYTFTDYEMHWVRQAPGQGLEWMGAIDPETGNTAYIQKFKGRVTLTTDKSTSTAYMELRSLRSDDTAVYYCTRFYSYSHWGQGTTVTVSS VL: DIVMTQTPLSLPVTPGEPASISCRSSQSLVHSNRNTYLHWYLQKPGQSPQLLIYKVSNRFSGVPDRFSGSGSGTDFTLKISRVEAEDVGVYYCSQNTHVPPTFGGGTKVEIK	9.27
hAb005LH1L1 (antibody, human IgG1, V domains shown, Humanized F3.54.12; VH H1 + VL L1; expressed as human IgG1) VH: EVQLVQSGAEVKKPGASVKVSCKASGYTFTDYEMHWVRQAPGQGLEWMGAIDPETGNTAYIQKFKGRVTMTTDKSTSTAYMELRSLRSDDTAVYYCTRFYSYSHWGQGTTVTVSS VL: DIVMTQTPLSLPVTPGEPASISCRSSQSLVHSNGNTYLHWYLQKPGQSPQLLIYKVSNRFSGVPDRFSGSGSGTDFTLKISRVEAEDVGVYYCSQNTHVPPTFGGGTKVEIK	9.25
hAb001H1aL1a (antibody, human IgG1, V domains shown, Humanized F2.169.2; VH H1a + VL L1a; expressed as human IgG1) VH: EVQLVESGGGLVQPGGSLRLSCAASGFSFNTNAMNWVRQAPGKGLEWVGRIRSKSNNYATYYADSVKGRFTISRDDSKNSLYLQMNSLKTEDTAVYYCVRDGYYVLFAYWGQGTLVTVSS VL: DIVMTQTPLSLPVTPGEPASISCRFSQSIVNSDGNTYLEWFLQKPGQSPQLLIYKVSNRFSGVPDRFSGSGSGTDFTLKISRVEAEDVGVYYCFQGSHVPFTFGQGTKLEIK	8.79
hAb001H1L1b (antibody, human IgG1, V domains shown, Humanized F2.169.2; VH H1 + VL L1b; expressed as human IgG1) VH: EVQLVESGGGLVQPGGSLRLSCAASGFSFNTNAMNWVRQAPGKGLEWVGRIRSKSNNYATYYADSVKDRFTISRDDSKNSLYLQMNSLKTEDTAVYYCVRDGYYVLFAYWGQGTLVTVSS VL: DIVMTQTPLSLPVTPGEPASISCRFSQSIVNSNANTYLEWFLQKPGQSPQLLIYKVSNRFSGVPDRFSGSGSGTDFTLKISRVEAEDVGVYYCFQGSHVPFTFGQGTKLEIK	9.40
hAb001H1L1a (antibody, human IgG1, V domains shown, Humanized F2.169.2; VH H1 + VL L1a; expressed as human IgG1) VH: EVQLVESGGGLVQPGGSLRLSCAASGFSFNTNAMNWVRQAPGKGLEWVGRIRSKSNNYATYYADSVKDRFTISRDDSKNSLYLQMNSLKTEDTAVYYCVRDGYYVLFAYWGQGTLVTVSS VL: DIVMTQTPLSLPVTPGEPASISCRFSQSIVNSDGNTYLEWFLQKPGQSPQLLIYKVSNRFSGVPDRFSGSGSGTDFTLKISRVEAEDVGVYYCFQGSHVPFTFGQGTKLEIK	8.44
hAb006LH1L1b (antibody, human IgG1, V domains shown, Humanized F3.38.7; VH H1 + VL L1b; expressed as human IgG1) VH: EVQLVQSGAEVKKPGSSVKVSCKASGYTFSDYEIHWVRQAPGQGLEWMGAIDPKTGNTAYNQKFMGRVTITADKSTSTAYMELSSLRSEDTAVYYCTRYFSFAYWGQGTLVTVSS VL: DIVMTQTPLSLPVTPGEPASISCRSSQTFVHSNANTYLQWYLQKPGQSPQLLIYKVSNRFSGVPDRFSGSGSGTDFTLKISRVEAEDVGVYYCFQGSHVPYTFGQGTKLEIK	8.96
hAb005LH1L1a (antibody, human IgG1, V domains shown, Humanized F3.54.12; VH H1 + VL L1a; expressed as human IgG1) VH: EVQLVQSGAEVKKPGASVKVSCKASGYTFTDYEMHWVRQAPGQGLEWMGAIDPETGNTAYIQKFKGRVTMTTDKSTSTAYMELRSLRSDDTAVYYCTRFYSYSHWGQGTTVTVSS VL: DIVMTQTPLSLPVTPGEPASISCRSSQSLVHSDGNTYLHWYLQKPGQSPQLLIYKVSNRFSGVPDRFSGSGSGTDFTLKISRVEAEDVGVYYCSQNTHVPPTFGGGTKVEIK	6.50
hAb001H1aL1b (antibody, human IgG1, V domains shown, Humanized F2.169.2; VH H1a + VL L1b; expressed as human IgG1) VH: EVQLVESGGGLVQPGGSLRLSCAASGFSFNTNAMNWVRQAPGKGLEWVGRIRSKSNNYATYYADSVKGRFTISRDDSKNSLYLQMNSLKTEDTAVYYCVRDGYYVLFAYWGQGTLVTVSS VL: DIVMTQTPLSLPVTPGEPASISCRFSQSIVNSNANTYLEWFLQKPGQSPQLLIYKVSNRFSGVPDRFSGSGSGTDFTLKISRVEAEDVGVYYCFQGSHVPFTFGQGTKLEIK	9.49

[Q] I'd like to know its pEC50. The binder in question is hAb006LH3L1 (antibody, human IgG1, V domains shown, Humanized F3.38.7; VH H3 + VL L1; expressed as human IgG1) VH: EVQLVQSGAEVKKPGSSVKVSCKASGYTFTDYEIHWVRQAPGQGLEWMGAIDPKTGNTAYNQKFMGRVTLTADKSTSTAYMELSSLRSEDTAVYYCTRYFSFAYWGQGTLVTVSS VL: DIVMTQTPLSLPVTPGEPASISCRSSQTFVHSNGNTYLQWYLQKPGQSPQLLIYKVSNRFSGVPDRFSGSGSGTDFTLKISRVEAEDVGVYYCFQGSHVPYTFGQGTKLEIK
[A] 9.03

[Q] I'd like to know its pEC50. The binder in question is hAb003LH3L1a (antibody, human IgG1, V domains shown, Humanized F2.154.1; VH H3 + VL L1a; expressed as human IgG1) VH: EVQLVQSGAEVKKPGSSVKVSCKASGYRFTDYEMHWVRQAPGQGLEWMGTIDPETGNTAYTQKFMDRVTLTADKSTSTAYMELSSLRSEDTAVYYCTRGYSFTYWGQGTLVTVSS VL: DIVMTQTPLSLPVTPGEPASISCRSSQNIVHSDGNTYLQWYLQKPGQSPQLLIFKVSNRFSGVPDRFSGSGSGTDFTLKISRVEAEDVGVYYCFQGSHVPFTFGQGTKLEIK
[A] 8.22

// data source = patent US20260116991A1
